# System: HOP-62 NSCLC
# Test Method Notes: NCI-60 one-dose screen, 48 h (100 = growth as untreated, 0 = no growth, -100 = all killed)
# Conditions Used: 10 µM unless noted
# Description: Growth inhibition of the HOP-62 human Non-Small Cell Lung tumor cell line is measured as a screen for anti-cancer activity. Cells are grown in 96 well plates and exposed to the test compound for 48 hours. Compounds are tested at a single concentration, which is 10^-5 M for most compounds. The reported endpoint is percent growth (GI% or GIPRCNT), where numbers from 0 - 100% represent growth inhibition, and numbers from -100% - 0 represent cell death. […]
Compounds without any hit were thinned out: in the full panel of roughly 83,000, 20% have a hit.
Hi there, I'd appreciate the recorded growth for every entry that follows.
One number for each entry, in %.

CC(=O)Oc1c(C)c(OC(C)=O)c2c(c1C(C)=O)OC1CC(=O)C(C(C)=O)=C(O)C21C (stereo unspecified)
89.2

For each entry beneath this line, provide reported growth.
1. NNC(=O)NO
2. Cc1nn(-c2ccccc2)c2c1oc(=O)c1cc(Cl)ccc12
3. Cc1ccc(C(=O)Nc2ccc(Cl)cc2C(=O)NCc2ccccc2)cc1
4. O=C(C=C=Nc1ccccc1)C(=O)N=C=Cc1ccccc1
5. CCCCSc1cc(C)nc(N)n1

RESULT:
1: 88.9; 2: 91.6; 3: 88.3; 4: 90.5; 5: 91.5
